# TESTED TARGET: Human PI3K beta (Homo sapiens)
# Construct: His (N); host or cells: SF9 insect cells (baculovirus)
# Sequence (P42338 whole entry): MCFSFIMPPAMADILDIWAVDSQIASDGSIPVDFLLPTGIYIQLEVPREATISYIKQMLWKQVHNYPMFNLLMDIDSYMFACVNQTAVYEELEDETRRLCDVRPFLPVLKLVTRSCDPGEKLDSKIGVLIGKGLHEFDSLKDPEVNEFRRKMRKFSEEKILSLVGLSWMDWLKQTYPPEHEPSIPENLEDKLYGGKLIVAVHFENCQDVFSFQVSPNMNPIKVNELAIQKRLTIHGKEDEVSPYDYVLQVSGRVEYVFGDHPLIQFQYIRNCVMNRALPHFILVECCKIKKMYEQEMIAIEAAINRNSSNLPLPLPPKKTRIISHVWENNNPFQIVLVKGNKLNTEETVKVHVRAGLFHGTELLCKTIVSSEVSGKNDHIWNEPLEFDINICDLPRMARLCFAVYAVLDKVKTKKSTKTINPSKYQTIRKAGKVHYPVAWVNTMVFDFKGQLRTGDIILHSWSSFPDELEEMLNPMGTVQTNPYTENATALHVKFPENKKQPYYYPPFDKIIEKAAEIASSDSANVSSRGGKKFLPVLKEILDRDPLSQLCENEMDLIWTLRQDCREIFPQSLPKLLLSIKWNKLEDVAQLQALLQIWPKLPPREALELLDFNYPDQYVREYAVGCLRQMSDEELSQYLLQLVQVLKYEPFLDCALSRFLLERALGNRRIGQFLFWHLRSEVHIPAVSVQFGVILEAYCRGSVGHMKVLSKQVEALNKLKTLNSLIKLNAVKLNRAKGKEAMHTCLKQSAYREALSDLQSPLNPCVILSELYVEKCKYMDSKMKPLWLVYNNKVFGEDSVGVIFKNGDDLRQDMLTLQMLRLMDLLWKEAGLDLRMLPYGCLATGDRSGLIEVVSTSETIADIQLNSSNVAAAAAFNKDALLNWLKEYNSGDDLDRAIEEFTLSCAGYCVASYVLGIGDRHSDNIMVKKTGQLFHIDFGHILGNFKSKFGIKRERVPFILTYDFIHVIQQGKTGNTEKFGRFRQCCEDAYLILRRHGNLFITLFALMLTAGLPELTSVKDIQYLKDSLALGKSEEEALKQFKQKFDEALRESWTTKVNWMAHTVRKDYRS
# Sequence (P27986 whole entry partner): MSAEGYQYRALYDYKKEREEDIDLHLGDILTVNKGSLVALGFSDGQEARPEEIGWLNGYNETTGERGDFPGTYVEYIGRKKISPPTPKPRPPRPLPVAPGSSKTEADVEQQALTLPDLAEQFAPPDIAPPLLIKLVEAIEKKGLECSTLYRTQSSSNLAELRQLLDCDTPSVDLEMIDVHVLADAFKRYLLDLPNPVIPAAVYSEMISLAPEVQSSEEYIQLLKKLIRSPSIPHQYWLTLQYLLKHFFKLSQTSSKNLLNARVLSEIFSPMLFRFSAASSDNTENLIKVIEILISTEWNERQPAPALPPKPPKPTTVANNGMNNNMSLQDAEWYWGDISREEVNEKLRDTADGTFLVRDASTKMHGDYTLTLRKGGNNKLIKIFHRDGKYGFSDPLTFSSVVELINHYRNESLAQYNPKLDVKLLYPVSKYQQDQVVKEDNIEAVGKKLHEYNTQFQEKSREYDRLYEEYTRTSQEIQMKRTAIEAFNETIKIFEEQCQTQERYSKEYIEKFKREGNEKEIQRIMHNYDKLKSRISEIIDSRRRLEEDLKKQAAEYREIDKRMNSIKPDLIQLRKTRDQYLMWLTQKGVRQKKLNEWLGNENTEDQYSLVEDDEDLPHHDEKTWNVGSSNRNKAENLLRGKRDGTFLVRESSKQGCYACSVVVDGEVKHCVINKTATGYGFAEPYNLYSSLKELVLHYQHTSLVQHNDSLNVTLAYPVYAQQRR
# ASSAY NOTES: Human PI3K beta enzyme assay (HTRF)
# Assay type: biochemical
# ASSAY CONTEXT: concentration not given; b1387 states 1.1 μM for PI3K α and β
# Description: The catalytic subunits of PI3Ks are cloned into either pDEST8(p110 alpha) or pDEST10(p110beta, p110delta, and p110gamma) as N-terminal His tagged fusion proteins using the Gateway system (Invitrogen, catalog#11804-010 for pDEST8 and 11806-015 for pDEST10). […] For the assay methods described above, test compound percent inhibition, at various concentrations, is calculated relative to control (DMSO and EDTA) treated samples. […]
Readings of p110 beta Percent Inhibition for the listed compounds
READOUT KIND: p110 beta Percent Inhibition

- CC(c1ccc2cc(F)ccc2c1)c1c(C(=O)O)sc(N2CCOCC2)c1C#N (stereo not shown): 115%
- COc1cc(C(O)c2cc(-c3ccnc(Cl)c3)sc2-c2nnc[nH]2)c(F)cc1Cl (stereo not shown): 109%
- OC(c1cc(-c2ccncc2)sc1-c1nnc[nH]1)c1c(F)ccc2ccccc12 (stereo not shown): 88%
- CC(c1ccc(Cl)c(Cl)c1)c1c(C(=O)O)sc(N2CCOCC2)c1C#N (stereo not shown) [Compound 366]: 113%

====

# TESTED TARGET: Human PI3K delta (Homo sapiens, UniProt O00329)
# Construct: His (N); host or cells: SF9 insect cells (baculovirus)
# Sequence (O00329 whole entry): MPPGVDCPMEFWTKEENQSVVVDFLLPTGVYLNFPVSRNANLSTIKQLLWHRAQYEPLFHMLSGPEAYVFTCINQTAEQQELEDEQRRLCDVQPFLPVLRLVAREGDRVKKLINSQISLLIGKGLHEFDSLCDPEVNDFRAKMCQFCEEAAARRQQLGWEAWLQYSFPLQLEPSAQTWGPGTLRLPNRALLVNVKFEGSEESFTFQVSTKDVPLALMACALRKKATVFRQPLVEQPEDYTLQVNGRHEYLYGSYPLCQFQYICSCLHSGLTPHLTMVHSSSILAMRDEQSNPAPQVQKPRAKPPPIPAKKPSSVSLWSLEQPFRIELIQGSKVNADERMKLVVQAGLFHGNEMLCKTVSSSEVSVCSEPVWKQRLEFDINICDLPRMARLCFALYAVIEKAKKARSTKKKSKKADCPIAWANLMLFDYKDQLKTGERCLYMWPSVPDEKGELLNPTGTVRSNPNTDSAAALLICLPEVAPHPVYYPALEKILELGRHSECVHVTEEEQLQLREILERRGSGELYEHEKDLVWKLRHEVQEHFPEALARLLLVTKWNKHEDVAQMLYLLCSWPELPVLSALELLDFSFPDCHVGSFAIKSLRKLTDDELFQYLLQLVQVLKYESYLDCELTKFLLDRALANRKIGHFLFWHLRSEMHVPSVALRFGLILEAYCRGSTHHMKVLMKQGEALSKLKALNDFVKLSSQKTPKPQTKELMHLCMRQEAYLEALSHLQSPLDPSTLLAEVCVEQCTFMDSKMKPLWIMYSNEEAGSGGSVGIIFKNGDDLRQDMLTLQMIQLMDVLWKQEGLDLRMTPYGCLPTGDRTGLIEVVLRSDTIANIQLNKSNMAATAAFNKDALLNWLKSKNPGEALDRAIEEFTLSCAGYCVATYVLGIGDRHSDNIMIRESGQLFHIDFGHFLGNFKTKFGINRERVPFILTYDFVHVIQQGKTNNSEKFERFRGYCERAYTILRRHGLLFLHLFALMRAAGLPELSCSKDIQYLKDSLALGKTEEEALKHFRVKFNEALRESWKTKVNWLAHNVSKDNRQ
# Sequence (P27986 whole entry partner): as the sequence (P27986 whole entry partner) above
# ASSAY NOTES: Human PI3K delta enzyme assay (HTRF)
# Format: biochemical
# ASSAY CONTEXT: concentration not given; b1389 states 1.0 μM for PI3K δ and γ; read-out: p110 delta Percent Inhibition
Readings of inhibition at 1 µM for the listed molecules
READOUT KIND: inhibition at 1 µM (%)

* Cn1c(Cc2nc(N3CCOCC3)sc2C(=O)O)cc2ccccc21 [Compound 302] | 97
* CC(=O)Nc1cc(-c2sc(-c3nnc[nH]3)c(Sc3ccc(Cl)cc3)c2C#N)ccn1 [Compound 166] | 85
* O=C(O)c1sc(N2CCOCC2)nc1Cc1cc2cc(Br)ccc2s1 [Compound 303] | 115
* Cc1ccc(F)c(C(O)c2cc(-c3ccncc3)sc2-c2nnc[nH]2)c1 (centres unmarked) [Compound 188] | 82
* Cn1c(Cc2c(C(=O)O)sc(N3CCOCC3)c2C#N)cc2ccccc21 [Compound 330] | 106
* COc1ccc(C(O)c2cc(-c3ccncc3)sc2-c2nnc[nH]2)cc1OC (centres unmarked) [Compound 246] | 43
* Clc1ccc(C(c2cc(-c3ccnc(Cl)c3)sc2-c2nnc[nH]2)N2CCC2)cc1 (centres unmarked) [Compound 251] | 44
* CC(=O)Nc1cc(-c2cc(C(c3ccc(Cl)cc3)N3CCOCC3)c(-c3nnc[nH]3)s2)ccn1 (centres unmarked) [Compound 248] | 109

====

List of IC50 tested on Human PI3K alpha (Homo sapiens, UniProt P42336).
Sequence (P42336 whole entry): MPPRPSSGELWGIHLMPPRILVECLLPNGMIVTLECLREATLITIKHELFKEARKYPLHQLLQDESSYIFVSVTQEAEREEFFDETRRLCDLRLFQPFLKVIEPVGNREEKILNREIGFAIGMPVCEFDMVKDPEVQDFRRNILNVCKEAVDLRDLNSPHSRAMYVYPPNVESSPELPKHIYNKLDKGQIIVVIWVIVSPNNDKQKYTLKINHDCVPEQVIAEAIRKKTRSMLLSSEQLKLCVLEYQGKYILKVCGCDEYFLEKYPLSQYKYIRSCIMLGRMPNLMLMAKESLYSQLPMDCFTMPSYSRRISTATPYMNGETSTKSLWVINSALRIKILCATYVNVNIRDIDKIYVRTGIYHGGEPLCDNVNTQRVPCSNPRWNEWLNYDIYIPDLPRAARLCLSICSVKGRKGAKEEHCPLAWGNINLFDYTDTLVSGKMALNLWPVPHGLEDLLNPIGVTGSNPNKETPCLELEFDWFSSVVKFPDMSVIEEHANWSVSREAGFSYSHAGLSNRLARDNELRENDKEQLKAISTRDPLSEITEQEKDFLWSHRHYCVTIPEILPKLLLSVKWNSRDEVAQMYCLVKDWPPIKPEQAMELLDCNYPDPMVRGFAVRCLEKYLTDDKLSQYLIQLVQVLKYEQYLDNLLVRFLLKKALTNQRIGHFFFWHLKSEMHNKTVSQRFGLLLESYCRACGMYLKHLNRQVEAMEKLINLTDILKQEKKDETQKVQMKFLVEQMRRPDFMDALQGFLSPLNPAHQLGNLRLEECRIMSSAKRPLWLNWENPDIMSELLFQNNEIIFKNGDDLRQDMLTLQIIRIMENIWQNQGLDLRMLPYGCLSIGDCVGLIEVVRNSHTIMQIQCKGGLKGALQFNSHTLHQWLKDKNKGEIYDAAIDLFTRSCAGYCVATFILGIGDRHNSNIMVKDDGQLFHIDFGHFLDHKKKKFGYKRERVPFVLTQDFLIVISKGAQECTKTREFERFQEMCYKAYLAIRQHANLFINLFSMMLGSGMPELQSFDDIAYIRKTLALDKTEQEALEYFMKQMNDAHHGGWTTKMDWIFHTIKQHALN
Sequence (P27986 whole entry partner): as the sequence (P27986 whole entry partner) above
READOUT KIND: IC50

• CC(=O)Nc1cc(-c2cc(C(O)c3ccc(Cl)cc3)c(-c3nnc[nH]3)s2)ccn1 (centres unmarked) = < 100 nM
• Clc1ccc(C(c2cc(-c3ccncc3)sc2-c2nnc[nH]2)N2CCC2)cc1 (centres unmarked) = > 1000 nM
• Cc1noc(C)c1-c1cc(C(O)c2ccc(Cl)cc2)c(-c2nnc[nH]2)s1 (centres unmarked) = > 1000 nM
• Cc1nn2ccccc2c1-c1nc(Cc2ccc(Cl)cc2)c(-c2nnc[nH]2)s1 = 100 to 1000 nM
• O[C@H](c1ccc(Cl)cc1)c1cc(-c2ccnc(F)c2)sc1-c1nnc[nH]1 = > 1000 nM
• COC(c1ccc(Cl)cc1)c1cc(-c2ccncc2)sc1-c1nnc[nH]1 (centres unmarked) = > 1000 nM
• COc1ccc(CNCc2ccn3nc(C)c(-c4nc(Cc5ccc(Cl)cc5)c(-c5nnc[nH]5)s4)c3c2)c(OC)c1 = 100 to 1000 nM
• OC(c1ccc(Cl)cc1)c1cc(-c2ccncc2Cl)sc1-c1nc[nH]n1 (centres unmarked) = > 1000 nM

====

# TESTED TARGET: Human PI3K delta (Homo sapiens)
# Construct: His (N); host or cells: SF9 insect cells (baculovirus)
# ASSAY NOTES: Human PI3K delta enzyme assay (HTRF)
# Format: biochemical
# ASSAY CONTEXT: concentration not given; b1389 states 1.0 μM for PI3K δ and γ; read-out: p110 delta Percent Inhibition
READOUT KIND: inhibition at 1 µM

* CC(=O)Nc1cc(-c2sc(-c3nnc[nH]3)c(C(c3ccc(Cl)cc3)N3CCNCC3)c2C#N)ccn1 (stereo not shown) [Compound 218] | 97%
* OC(c1ccc2ccccc2c1)c1cc(-c2ccncc2)sc1-c1nnc[nH]1 (stereo not shown) [Compound 280] | 92%
* COc1cc(C(O)c2cc(-c3ccncc3)sc2-c2ncn[nH]2)c(F)cc1Cl (stereo not shown) [Compound 186] | 92%
* CC(=O)Nc1cc(-c2cc(C(c3ccc(Cl)cc3)N3CC(CCN)C3)c(-c3nnc[nH]3)s2)ccn1 (stereo not shown) [Compound 270] | 111%
* Cc1c(F)cccc1C(O)c1cc(-c2ccncc2)sc1-c1nnc[nH]1 (stereo not shown) [Compound 138] | 69%
* COc1cccc(F)c1C(O)c1cc(-c2ccncc2)sc1-c1nnc[nH]1 (stereo not shown) [Compound 239] | 41%
* N#Cc1c(N2CCOCC2)sc(C(=O)O)c1Cc1cc(F)c2ccccc2c1 [Compound 324] | 113%
* OC(c1cccc(-c2ccncc2)c1)c1cc(-c2ccncc2)sc1-c1nnc[nH]1 (stereo not shown) [Compound 258] | 47%
* CC(=O)Nc1cc(-c2cc(C(NCC3CCNC3)c3ccc(Cl)cc3)c(-c3nnc[nH]3)s2)ccn1 (stereo not shown) [Compound 234] | 104%
* CC(=O)Nc1cc(-c2cc(C(OCC3CNC3)c3ccc(Cl)cc3)c(-c3nnc[nH]3)s2)ccn1 (stereo not shown) [Compound 182] | 107%
* CC(=O)Nc1cc(-c2nc(C(c3ccc(Cl)cc3)N3CCNCC3)c(-c3nnc[nH]3)s2)ccn1 (stereo not shown) [Compound 229] | 106%
* CC(=O)Nc1cc(-c2cc(C(c3ccc(Cl)cc3)N3CCN(S(C)(=O)=O)CC3)c(-c3nnc[nH]3)s2)ccn1 (stereo not shown) [Compound 224] | 103%
* CC(=O)Nc1cc(-c2cc(C(NC(C)C)c3ccc(Cl)cc3)c(-c3nnc[nH]3)s2)ccn1 (stereo not shown) [Compound 244] | 101%
* O=C(O)c1sc(N2CCOCC2)nc1Cc1cc2ccccc2s1 [Compound 286] | 104%
* CC(=O)Nc1cc(-c2cc(C(c3ccc(Cl)cc3)N3CC[C@H](CO)C3)c(-c3nnc[nH]3)s2)ccn1 (stereo partly shown) [Compound 269] | 101%
* N#Cc1c(N2CCOCC2)sc(C(=O)O)c1C(N)c1ccc2ccccc2c1 (stereo not shown) [Compound 357] | 110%

====

# TESTED TARGET: Human PI3K delta (Homo sapiens)
# Construct: His (N); host or cells: SF9 insect cells (baculovirus)
# ASSAY NOTES: Human PI3K delta enzyme assay (HTRF)
# Assay type: biochemical
# ASSAY CONTEXT: concentration not given; b1389 states 1.0 μM for PI3K δ and γ
READOUT KIND: p110 delta Percent Inhibition (%)

* CC(=O)Nc1cc(-c2cc(C(c3ccc(Cl)cc3)N3CCC[C@@H]3CO)c(-c3nnc[nH]3)s2)ccn1 (single isomer, unassigned) [Compound 283] | 99
* CC(=O)Nc1cc(-c2cc(C(c3ccc(Cl)cc3)N(C)C3CNC3)c(-c3nnc[nH]3)s2)ccn1 (stereo not shown) [Compound 277] | 116
* OC(c1cc(-c2ccncc2)sc1-c1nnc[nH]1)c1c(F)ccc2ccccc12 (stereo not shown) [Compound 203] | 67
* OC(c1cc(-c2ccncc2)sc1-c1nnc[nH]1)c1c(F)ccc2ccccc12 (stereo not shown) [Compound 281] | 97
* OC(c1cc2ccccc2cc1F)c1cc(-c2ccncc2)sc1-c1nnc[nH]1 (stereo not shown) [Compound 284] | 110
* OC(c1ccc2ccccc2c1)c1cc(-c2ccncc2)sc1-c1nnc[nH]1 (stereo not shown) [Compound 208] | 107
* CN(C)C(c1ccc(Cl)c(Cl)c1)c1c(C(=O)O)sc(N2CCOCC2)c1C#N (stereo not shown) [Compound 362] | 104
* CC(c1ccc(Cl)c(Cl)c1)c1c(C(=O)O)sc(N2CCOCC2)c1C#N (stereo not shown) [Compound 366] | 113
* COc1cc(C(O)c2cc(-c3ccnc(C)c3)sc2-c2nnc[nH]2)c(F)cc1Cl (stereo not shown) [Compound 285] | 77
* N#Cc1c(N2CCOCC2)sc(C(=O)O)c1C(CCO)c1ccc2ccccc2c1 (stereo not shown) [Compound 363] | 106
